A collection of molecules and their measured Screen- Rabbit/No Protein
Test system: rabbit vWF A1 domain (SEQ ID NO 6)
Sequence (as listed by the source): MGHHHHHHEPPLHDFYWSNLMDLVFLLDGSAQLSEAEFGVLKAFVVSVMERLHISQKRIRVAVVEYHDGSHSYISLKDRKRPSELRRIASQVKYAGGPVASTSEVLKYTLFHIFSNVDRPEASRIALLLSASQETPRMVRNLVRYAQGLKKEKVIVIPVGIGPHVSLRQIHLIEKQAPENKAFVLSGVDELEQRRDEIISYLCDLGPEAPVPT
Assay: 3-point dot blot screen, rabbit vWF A1 domain
Format: binding
Conditions: rRdY aptamers; 100 nM rabbit vWF A1 domain; ratio of fraction bound with target to without
Oligonucleotides are written 5' to 3', each unit as a sugar letter and its base; * is a phosphorothioate linkage, no mark a phosphodiester; rarer units and linkages stand in square brackets, end groups in braces. Plain capitals give the bases only. d = 2'-deoxy (DNA); r = 2'-OH (RNA)

Example molecules with recorded Screen- Rabbit/No Protein:
* AMX203.A6: rRdY aptamer clone (nucleic acid) rGrGrArGdCrGdCrAdCdTdCrArGdCdCrAdCdCrAdCrGrGrGrGrAdCrGrGrGdTrArGrGrGdCrGrGrGdCrGrArGrGdTrGrGdTrGrGdCrAdTdTrArGdCrGdTdTdTdCrGrAdCdCdTdCdTdCdTrGdCdTrArGdC | 1.16
* AMX205.F7: rRdY aptamer clone (nucleic acid) rGrGrArGdCrGdCrAdCdTdCrArGdCdCrAdCrAdCrGrAdCrAdTdTrGrGdCrGrGrGdTdTrGdTrArAdTdTrAdCdCrAdCrGdCrAdTrGrGdCdTrGdTdTdTrGdTdTdTdCrGrAdCdCdTdCdTdCdTrGdCdTrArGdC | 2.37

Let's switch to this molecule now.
Which Screen- Rabbit/No Protein value belongs to AMX206.A10: rRdY aptamer clone (nucleic acid) rGrGrArGdCrGdCrAdCdTdCrArGdCdCrAdCrGrGdCrAdTrGrAdCrGrGdTrGrAdTrGrArAdTdTrArGdCrGdCrGrGdTrGdTdCrGrGdTrGrGdTrGdTdCrAdTdTdTdCrGrAdCdCdTdCdTdCdTrGdCdTrArGdC ?
2.58
